TARGET DESC: ERα (Homo sapiens)
Construct: host or cells: MCF7 cells
ASSAY PROCEDURE: Estrogen receptor degradation activity: breast cancer cell ERα in cell western assay (MCF7 cells)
Format: cell-based
CONDITIONS: 4 hours, final concentrations ranging from 0.3-0.0000018 μM, relative to fulvestrant 0.1 μM positive control
Consider the following compounds; for each one, report its % Degradation At 0.3 μM.
One number for each entry, in %.

| COMPOUND | MEASUREMENT UNIT | % Degradation At 0.3 μM |
| --- | --- | --- |
| O=C(O)c1ccccc1-c1ccc2c(c1)CCCC(c1ccc(Cl)cc1Cl)=C2c1ccc(O[C@H]2CCN(CCCF)C2)cc1 | % | 88 |

Working through the 2 compounds below one at a time, give % Degradation At 0.3 μM for each.
1. CCOc1ccc(C2=C(c3ccc(O[C@H]4CCN(CCCF)C4)cc3)c3ccc(C#N)cc3CCC2)c(F)n1 [Example 80, 2,2,2-trifluoroacetate]
2. O=C(Nc1ccc2c(c1)CCCC(c1ccc(Cl)cc1Cl)=C2c1ccc(O[C@H]2CCN(CCCF)C2)cc1)C1(F)CC1

Marked response:
90
74

----------
TARGET DESC: ERα (Homo sapiens, UniProt P03372)
Construct: host or cells: MCF7 cells
Sequence (P03372 whole entry): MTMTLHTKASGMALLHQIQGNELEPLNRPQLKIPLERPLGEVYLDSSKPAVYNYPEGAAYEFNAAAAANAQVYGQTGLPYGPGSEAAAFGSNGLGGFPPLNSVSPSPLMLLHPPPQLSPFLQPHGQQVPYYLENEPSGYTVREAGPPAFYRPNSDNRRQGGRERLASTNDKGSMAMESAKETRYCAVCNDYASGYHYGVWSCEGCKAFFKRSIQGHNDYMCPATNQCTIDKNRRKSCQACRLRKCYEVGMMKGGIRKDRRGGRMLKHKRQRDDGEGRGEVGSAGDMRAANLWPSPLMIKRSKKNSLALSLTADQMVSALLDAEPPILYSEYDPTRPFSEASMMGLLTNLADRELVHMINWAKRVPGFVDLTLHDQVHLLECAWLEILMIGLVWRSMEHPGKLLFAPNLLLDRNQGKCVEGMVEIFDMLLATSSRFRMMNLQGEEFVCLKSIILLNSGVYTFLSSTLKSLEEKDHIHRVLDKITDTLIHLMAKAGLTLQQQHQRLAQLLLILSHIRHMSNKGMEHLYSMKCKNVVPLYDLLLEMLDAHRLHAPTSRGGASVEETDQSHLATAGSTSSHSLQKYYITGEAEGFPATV
ASSAY PROCEDURE: Estrogen receptor degradation activity: breast cancer cell ERα in cell western assay (MCF7 cells)
Type: cell-based
CONDITIONS: 4 hours, final concentrations ranging from 3-0.000018 μM, relative to fulvestrant 0.1 μM positive control
Procedure: Test: Estrogen Receptor Degradation Activity Said test involves measuring the in vitro degradation activity of the compounds of the invention. […] MCF7 cells (ATCC) were seeded in 384 wells microplate (collagen coated) at a concentration of 10000 cells/30 μL, per well in red phenol free MEM alpha medium (invitrogen) containing 5% charcoal dextran striped FBS. […] Integrated intensities in the green fluorescence and red fluorescence were measured to determine the levels of ERα and DNA respectively.
METRIC NAME: % Degradation At 3 μM (%)
One number for each entry, in %.

Please review the entries below; each comes with its answer.
| SMILES RECORD | TARGET DESC | MEASUREMENT UNIT | % Degradation At 3 μM |
| --- | --- | --- | --- |
| O=C(NNC(=S)n1ccnc1)c1ccc2c(c1)CCCC(c1ccc(Cl)cc1Cl)=C2c1ccc(O[C@H]2CCN(CCCF)C2)cc1 | ERα (Homo sapiens, UniProt P03372) | % | 91 |
| N=C(NO)c1ccc2c(c1)CCCC(c1ccc(Cl)cc1Cl)=C2c1ccc(O[C@H]2CCN(CCCF)C2)cc1 | ERα (Homo sapiens, UniProt P03372) | % | 90 |
| CC(C)(C)OC(=O)Nc1ccc2c(c1)CCCC(c1ccc(Cl)cc1Cl)=C2c1ccc(O[C@H]2CCN(CCCF)C2)cc1 | ERα (Homo sapiens, UniProt P03372) | % | 73 |
| CC1(C)OB(c2ccc3c(c2)CCCC(c2ccc(Cl)cc2Cl)=C3c2ccc(O[C@H]3CCN(CCCF)C3)cc2)OC1(C)C | ERα (Homo sapiens, UniProt P03372) | % | 86 |
| CS(=O)(=O)NC(=O)c1ccc2c(c1)CCCC(c1ccc(Cl)cc1Cl)=C2c1ccc(O[C@H]2CCN(CCCF)C2)cc1 | ERα (Homo sapiens, UniProt P03372) | % | 90 |

Attention now shifts to the item below.
Exam item: Param readout= % Degradation At 3 μM; system= ERα (Homo sapiens, UniProt P03372); entry= O=C(Nc1nn[nH]n1)c1ccc2c(c1)CCCC(c1ccc(Cl)cc1Cl)=C2c1ccc(O[C@H]2CCN(CCCF)C2)cc1 ; returns value.
Marked response: 84

----------
TARGET DESC: ERα (Homo sapiens, UniProt P03372)
Construct: host or cells: MCF7 cells
ASSAY PROCEDURE: Estrogen receptor degradation activity: breast cancer cell ERα in cell western assay (MCF7 cells)
Type: cell-based
CONDITIONS: 4 hours, final concentrations ranging from 3-0.000018 μM, relative to fulvestrant 0.1 μM positive control
Method: Test: Estrogen Receptor Degradation Activity Said test involves measuring the in vitro degradation activity of the compounds of the invention. […] MCF7 cells (ATCC) were seeded in 384 wells microplate (collagen coated) at a concentration of 10000 cells/30 μL, per well in red phenol free MEM alpha medium (invitrogen) containing 5% charcoal dextran striped FBS. […] Integrated intensities in the green fluorescence and red fluorescence were measured to determine the levels of ERα and DNA respectively.
METRIC NAME: % Degradation At 3 μM (%)
Answers are plain numbers, in %.

| MOLECULE | % Degradation At 3 μM (%) |
| --- | --- |
| O=C(Nc1ccc2c(c1)CCCC(c1ccc(Cl)cc1Cl)=C2c1ccc(O[C@H]2CCN(CCCF)C2)cc1)C(F)(F)F [Example 47] | 78 |
| N#Cc1ccc2c(c1)CCCC(c1ccc(Cl)cc1Cl)=C2c1ccc(O[C@H]2CCN(CCCF)C2)cc1 [Example 22] | 82 |
| OC(c1ccc2c(c1)CCCC(c1ccc(Cl)cc1Cl)=C2c1ccc(O[C@H]2CCN(CCCF)C2)cc1)C(F)F (some centres unmarked) [Example 5] | 93 |
| O=c1[nH]c(-c2ccc3c(c2)CCCC(c2ccc(Cl)cc2Cl)=C3c2ccc(O[C@H]3CCN(CCCF)C3)cc2)ns1 [Example 37] | 98 |

Please give % Degradation At 3 μM for each item listed below.
1. FCCCN1CC[C@H](Oc2ccc(C3=C(c4ccc(OC(F)(F)F)cc4)CCCc4cc(OC(F)F)ccc43)cc2)C1 [Example 24]
2. COC(=O)c1cccc(-c2ccc3c(c2)CCCC(c2ccc(Cl)cc2Cl)=C3c2ccc(O[C@H]3CCN(CCCF)C3)cc2)c1 [Example 57]
3. Oc1cc(-c2ccc3c(c2)CCCC(c2ccc(Cl)cc2Cl)=C3c2ccc(O[C@H]3CCN(CCCF)C3)cc2)on1 [Example 4]
4. O=c1c(O)c(Nc2ccc3c(c2)CCCC(c2ccc(Cl)cc2Cl)=C3c2ccc(O[C@H]3CCN(CCCF)C3)cc2)c1=O [Example 36]
5. O=c1oc(-c2ccc3c(c2)CCCC(c2ccc(Cl)cc2Cl)=C3c2ccc(O[C@H]3CCN(CCCF)C3)cc2)ns1 [Example 33]
6. O=C1NC(=O)C(c2ccc3c(c2)CCCC(c2ccc(Cl)cc2Cl)=C3c2ccc(O[C@H]3CCN(CCCF)C3)cc2)N1 (some centres unmarked) [Example 43]
7. O=c1[nH]c(-c2ccc3c(c2)CCCC(c2ccc(Cl)cc2Cl)=C3c2ccc(O[C@H]3CCN(CCCF)C3)cc2)no1 [Example 27]

Marked response:
1: 74; 2: 87; 3: 87; 4: 93; 5: 95; 6: 95; 7: 71

Batch lookup, % Degradation At 3 μM per entry.
1. O=C1CC(c2ccc3c(c2)CCCC(c2ccc(Cl)cc2Cl)=C3c2ccc(O[C@H]3CCN(CCCF)C3)cc2)=NO1 [Example 13]
2. O=C1CCCN1c1ccc2c(c1)CCCC(c1ccc(Cl)cc1Cl)=C2c1ccc(O[C@H]2CCN(CCCF)C2)cc1 [Example 58]
3. O=C1OCCN1c1ccc2c(c1)CCCC(c1ccc(Cl)cc1Cl)=C2c1ccc(O[C@H]2CCN(CCCF)C2)cc1 [Example 40]
4. FCCCN1CC[C@H](Oc2ccc(C3=C(c4ccc(Cl)cc4Cl)CCCc4cc(-c5nnco5)ccc43)cc2)C1 [Example 7]

Marked response:
76
77
66
86

// for each molecule below, give its % Degradation At 3 μM
1. O=c1cc(-c2ccc3c(c2)CCCC(c2ccc(Cl)cc2Cl)=C3c2ccc(O[C@H]3CCN(CCCF)C3)cc2)[nH][nH]1 [Example 12]
2. O=c1[nH]nc(-c2ccc3c(c2)CCCC(c2ccc(Cl)cc2Cl)=C3c2ccc(O[C@H]3CCN(CCCF)C3)cc2)o1 [Example 31]

Marked response:
[83, 95]

----------
TARGET DESC: ERα (Homo sapiens, UniProt P03372)
Construct: host or cells: MCF7 cells
ASSAY PROCEDURE: Estrogen receptor degradation activity: breast cancer cell ERα in cell western assay (MCF7 cells)
Type: cell-based
CONDITIONS: 4 hours, final concentrations ranging from 0.3-0.0000018 μM, relative to fulvestrant 0.1 μM positive control
METRIC NAME: % Degradation At 0.3 μM (%)
Give bare numbers, in %.

Examples with their reported % Degradation At 0.3 μM follow.
| MOLECULE | METRIC NAME | OBS VALUE |
| --- | --- | --- |
| CC1(C(=O)Nc2ccc3c(c2)CCCC(c2ccc(Cl)cc2Cl)=C3c2ccc(O[C@H]3CCN(CCCF)C3)cc2)CC1 | % Degradation At 0.3 μM | 79 |
| O=C(c1ccc2c(c1)CCCC(c1ccc(Cl)cc1Cl)=C2c1ccc(O[C@H]2CCN(CCCF)C2)cc1)N1CC(O)C1 | % Degradation At 0.3 μM | 59 |
| CC(C)(O)c1cccc(-c2ccc3c(c2)CCCC(c2ccc(Cl)cc2Cl)=C3c2ccc(O[C@H]3CCN(CCCF)C3)cc2)c1 | % Degradation At 0.3 μM | 64 |
| CC(C)(C)OC(=O)Nc1ccc2c(c1)CCCC(c1ccccc1)=C2c1ccc(O[C@H]2CCN(CCCF)C2)cc1 | % Degradation At 0.3 μM | 91 |
| Nc1cc(-c2ccc3c(c2)CCCC(c2ccc(Cl)cc2Cl)=C3c2ccc(O[C@H]3CCN(CCCF)C3)cc2)n[nH]1 | % Degradation At 0.3 μM | 89 |

Look up % Degradation At 0.3 μM for the entries below, preserving their order.
1. CC(C)(C)C(=O)Nc1ccc2c(c1)CCCC(c1ccc(Cl)cc1Cl)=C2c1ccc(O[C@H]2CCN(CCCF)C2)cc1
2. CCOc1ccc(C2=C(c3ccc(O[C@H]4CCN(CCCF)C4)cc3)c3ccc(C(N)=O)cc3CCC2)c(F)n1

Marked response:
[68, 91]
